B1: TPR t1 (parent)
chain: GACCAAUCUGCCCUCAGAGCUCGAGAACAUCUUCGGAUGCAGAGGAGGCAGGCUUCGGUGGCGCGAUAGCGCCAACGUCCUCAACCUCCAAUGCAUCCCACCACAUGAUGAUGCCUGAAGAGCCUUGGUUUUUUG

variants of: B1; experiment: polymerase ribozyme fitness, log enrichment relative to wild type (log ratio); higher = more active; in vitro selection for triplet polymerase activity
Provide the reported polymerase ribozyme fitness (log ratio) of each item.
Answers are plain numbers.

Observe how each entry below is paired with its result.
GUGCAAUCUGCCCUCAGAGCUCGAGAACAUCUUCGGAUGCAGAGGAGGCAGGCUUCGGUGGCACGAUAGCGCCAACGUCCUCAACCUCCAAUGCAUCCCACCACAUGAUGAUGCCUGAAGAGCCUUGGUUUUUUG [A2U C3G G63A]: -3.64
GACCAAUCUGUCCUCAGAGCUCGAGAACAUCUUCGGAUGCAAAGGAGGCAGGCUUCGGUGGCGCGAUAGCGCUAACGUCCUCAACCUCCAAUGCAUCCCACCAAAUGAAGAUGCCUGAAGAGCCGUGGUUUUUUG [C11U G42A C73U C104A U109A U125G]: -7.2
GACCAAUCUGCCCUCAGAGCUCGAGAACAUCUUCGGAUGCAGAGGAGGCAGGCUUUGGUGGCGCGAUAGCGCCAACGUCCUCAACCUCCAAUGCAACCCACCACAAGAUGAUGCCUGAAGAGCCUUGGUUUUUUG [C56U U96A U106A]: -0.662

# return polymerase ribozyme fitness (log ratio) for each item in the list
1. GACCAAUCUGCCCUCAGAGCUCGAGAACAUCUUCGGAUGCAGAGGAGGGAGGAUUCGGGGGCGCGAUAGCGUCAACGUCCUCAACUUCCAAUGCAUCCCACCACAUGAUGAUGCCUGAAGAGCCUUGGUUUAUUG [C49G C53A U59G C72U C86U U132A]
2. GACCAAACUGCCCACAGAGCUCGAGAACAUCUUCGGAUGCAGAGGAGGCAGGCUUCGGUGGCGCGAUAGCGCCAACGUCCUCAACCUCCAAUGCAUCCCACCACAUGAUGAUGCCUGAGGAGCCUUGGUUUUUUG [U7A U14A A119G]
3. GACCAAUCUGCCCUCAGAGCUCGAGAACAUCUUCGGAUGCAGAGGAGGCAGGCUUCGGUGGCGCGAUAGCGCCAACGUCCUCAACCUCCAAUGCAUCCCACCACAUGAUGCGUCCAGAAGAGCAUUGGUUUUUUG [A111C U112G G113U U116A C124A]
4. GACCAAUCUGCCCUCAGAGCUCGAGAACAUCUUCGGAUGCAGAGGAGCCAGGCUUCGGUGGCGCGAUAGCGCCAACGUCCUCUACCACCAAUGCAUCCCACCACAUGAUGAUGCCUGAAGAGCCUUGGUUUUUUG [G48C A83U U87A]
5. GACCAACCUGCCCUCAGAGCUCGAGAACAUCUUCGGAUGCAGAGGAGGCAGGCUUCGGUGGCGCGAUAGCGCAAACGUCCUCAACCUCCAAUGCAUCCCACCACAUGAUGAUGCCUGAAGAGCCUUGGUUUUUUG [U7C C73A]
6. GACCAAUCUGCCCUCAGAGCUCGAGAACAUCUUCGGAUGCAGAGGAGGCAGGCUUCGGUGGCGCGAUAGAGCCAACGUCCUCAACCUGCAAUGCAUCCCACCACAUGAUGAUGCCUGAAGAGCCGUGGUUUUUUG [C70A C88G U125G]
7. GACCAAUCUGCCCUCAGAGCUCGAGAACAUCUUCGGAUGCAGAGGAGGCAGGCUUCGGUGGCGCGAUAGCGCCAACGUCCUCAACCUCAAAUGCAUCCCACCACAUGAUGAUGCCUGAAGAGCUUUGGUUUUUUG [C89A C124U]
8. GACCAAUCUGCCCUCAGAGCUCGAGAACAUCUUCGGAUGCAGAGGAGGCAGGCAUCGGUGGCGCGAUAGCGCCAACGUCCUCAACCUCCAAUGCAUCCCACCACAUGAUGAUACCUGAAGAGCCUUGGUUUUUUG [U54A G113A]

Solution:
1. -0.782
2. 0.0679
3. -3.18
4. -0.806
5. -0.286
6. -3.18
7. 0.618
8. -1.58
